parameter: melting point

• Cc1[nH]nc(C(=O)O)c1[N+](=O)[O-] = 183 to 185 °C
• NS(=O)(=O)c1cnn(-c2ccccc2)c1 = 196 to 198 °C
• COc1cc(C=O)ccc1OCc1ccc(Cl)cc1Cl = 114 to 116 °C
• COCCOc1ccc(F)cc1[N+](=O)[O-] = 54 to 56 °C
• BrCC1CSc2nnc(-c3ccccc3)n21 (stereo not given) = 157 to 159 °C
• O=C(O)C=Cc1cc(Br)ccc1OCc1ccccc1Cl = 192 to 194 °C

Here's the next entry for you.
For this compound ( `CCc1cc2c(=O)[nH]c(N3CCCC3)nc2s1` ), measured melting point is 253 to 255 °C

###

Listed here are compounds together with their documented melting point.

* O=C(O)c1cnc2n1CCCC2 | 219 to 221 °C

Entry `CCOC(=O)c1ccc(S(N)(=O)=O)nc1` , melting point reported as 114 to 116 °C

The reported value for `CN(C)c1ccc(CCC(=O)O)cc1` in terms of melting point is 105 to 107 °C

###

Entries and their melting point values follow.

Example entries and their recorded answers appear below.
• O=C(O)c1ccccc1OCc1cccc(Br)c1 = 108 to 110 °C
• O=C(O)CC1=NNC(=O)C1 = 195 to 197 °C
• CCN1CCN(c2ccc(N)cc2)CC1 = 70 to 72 °C
• Sc1nnnn1-c1cccc(Cl)c1 = 148 to 150 °C
• CC(C)(C)OC(=O)N1CCC(CC(=O)O)CC1 = 98 to 100 °C
• NC(=O)c1cc(N)ccc1F = 137 to 139 °C

melting point for `OCc1cnns1` is 34 to 36 °C

Recorded result, `Nc1ccccc1C(=O)NCc1ccco1` , melting point: 76 to 78 °C

The measured melting point associated with `Cc1cccc(Nc2nnc(SCC(=O)O)s2)c1C` reads 159 to 161 °C

Kindly note the recorded melting point for Cc1[nH]c2ccccc2c1C(=O)C(C)Cl (stereo not drawn) , which is 133 to 135 °C

Field melting point (entry `Nc1cc(-c2ccco2)nn1-c1ccc(Cl)cc1` ) reads 129 to 131 °C

###

Listed here are compounds together with their documented melting point.

* O=C(O)C1CCCN1c1ncnc2sccc12 (centres undefined) | 211 to 213 °C
* CN(C=O)c1ccc(C(=O)CCl)cc1 | 96 to 98 °C
* Cc1cccc(NC(=O)CCCCl)c1 | 137 to 139 °C

Switching to the query record.
# compound `Nc1nc(-c2cccs2)c(-c2cccs2)s1` ; its melting point = 139 to 141 °C

###

parameter: melting point

Some compounds with known melting point results, for comparison:
- Nc1ccc(N2CCSCC2)cc1C(=O)O: 176 to 178 °C
- COC(=O)CSc1cncc(Cl)n1: 32 to 34 °C
- NNC(=O)c1cn(-c2ccccc2)nc1-c1ccccc1: 161 to 163 °C
- N#Cc1cc2c(nc1N)CCCC2: 195 to 197 °C
- O=C(O)CCCc1nnc(-c2ccccc2I)o1: 69 to 71 °C
- N#CCc1c[nH]c2ncccc12: 139 to 141 °C
- O=Cc1cc2ccccc2nc1N1CCCCC1: 118 to 120 °C
- NC(=O)c1ccn(-c2ccccc2N)n1: 161 to 163 °C

Lookup result for `O=C(O)C1(c2ccc(O)cc2)CCOCC1` ; measured melting point: 170 to 172 °C

Entry `Nc1nc2cc(Cl)ccc2s1` ; melting point = 197 to 199 °C

Field melting point (entry CC(C)C(Br)C(=O)NCC1CCCO1 (stereo unspecified) ) reads 53 to 55 °C

Measured melting point of `Nc1ncc(Cc2ccccc2Cl)s1` : 97 to 99 °C

Recorded melting point (compound `CCN(CC)S(=O)(=O)c1cc(C(=O)O)ccc1Cl` ): 118 to 120 °C

So for CC(Cl)C(=O)Nc1ccc(Cl)cn1 (stereo unspecified) , the logged melting point turned out to be 88 to 90 °C

// `CCc1onc(C)c1C(=O)O` : melting point value = 126 to 128 °C

Field melting point (entry `Cc1cccc(S(N)(=O)=O)n1` ) reads 165 to 167 °C

###

parameter: melting point

Here's what some known entries look like.
- CC(C)(N)CN1CCN(c2ccccc2)CC1: 84 to 86 °C
- Cc1cccc(N2CCN(c3ccc(C#N)cn3)CC2)c1: 121 to 123 °C
- ClCc1nn(-c2ccccc2)c2c1CCC2: 83 to 85 °C
- O=C(O)CCCNc1nc2ccccc2s1: 110 to 112 °C
- CC(=O)c1ccc(-c2ccc(C=O)o2)cc1: 133 to 135 °C

Per the record, `COC(=O)c1scnc1C1CC1` has melting point of 59 to 61 °C

Lab book: melting point of `O=C(O)Cc1csc2nccn12` noted as 259 to 261 °C

melting point reading for `NC(=NO)c1ccc(O)cc1` : 152 to 156 °C

Memo: `Cc1nc(=O)cc[nH]1` , reported melting point: 213 to 215 °C

For record `C#Cc1cccc(NC(=O)NC(=O)CCl)c1` the listed melting point is 185 to 187 °C

melting point reported for this compound `Clc1cccc(Nc2nc3ccccc3s2)c1` : 173 to 175 °C

melting point for `O=C(CCl)Nc1ccc(N2CCc3ccccc32)cc1` is 167 to 169 °C

# melting point of `N#CCc1ccc(-n2cccn2)cc1` = 127 to 129 °C

The value of melting point measured for the compound `O=C(O)CCS(=O)(=O)c1ccc2c(c1)CCC2` turned out to be 124 to 126 °C

`Nc1nnc(Cc2cccc(Cl)c2)s1` yielded melting point of 196 to 198 °C

// field: melting point; key: `Cc1cc(C(=O)O)ccc1-n1cncn1` ; value = 242 to 244 °C

Record `O=Cc1cc(C(=O)O)co1` , field melting point: 165 to 167 °C

The recorded melting point for `Cc1ccc(-n2nc(C)c(C=O)c2Cl)cc1` is 135 to 137 °C

get_value(item= `Nc1cc([N+](=O)[O-])c(F)cc1F` , readout=melting point) returns 98 to 100 °C

response.value for `Nc1cccc([N+](=O)[O-])c1C(=O)O` (field: melting point) = 143 to 145 °C

GET /value?item= CC(C)(C)OC(=O)NC1CC(O)C1 (stereo not given) &field=melting point returns 108 to 110 °C

###

Measured melting point of individual entries

- CC(C)(C)C(=O)Nc1nc(CC(=O)O)cs1: 222 to 224 °C
- Nc1noc(-c2ccoc2)n1: 179 to 181 °C
- Cn1c(S)nc2ccsc2c1=O: 313 to 315 °C
- CC(=O)N1CCN(c2ccc(C(=O)O)cc2[N+](=O)[O-])CC1: 262 to 264 °C
- Cn1cc(CC2CC(=O)NC2=O)cn1 (stereo not given): 116 to 118 °C
- O=S(=O)(Cl)c1scc(Br)c1Br: 111 to 113 °C

Documented melting point of `COC(=O)c1cc(Cl)c2ccccc2n1` : 121 to 123 °C

According to the records, this compound O=C(NC(C(=O)O)c1ccccc1)OCC1c2ccccc2-c2ccccc21 (stereo not given) displays melting point of 170 to 172 °C

Input `O=C1CCS(=O)(=O)c2ccc(F)cc21` . Output melting point: 163 to 167 °C

Entry `N#Cc1cc(CBr)ccc1F` , melting point reported as 44 to 46 °C

Lab note: `CCC(CC)(CN)NC(=O)OC(C)(C)C` gave melting point of 49 to 51 °C

The recorded melting point for `O=C(O)Cc1cc(Cl)ccc1Br` is 101 to 103 °C

Short answer for `COc1cc(F)c([N+](=O)[O-])cc1F` : melting point was 78 to 80 °C

Input `Cc1cc(C(=O)O)c2c(Br)cccc2n1` . Output melting point: 232 to 234 °C

For this compound ( `O=C(c1ccccc1)c1ccc(CBr)cc1` ), measured melting point is 109 to 112 °C

###

This section presents compounds with their documented melting point values.

- COc1ccc(CCNC(C)=O)cc1S(N)(=O)=O: 194 to 196 °C

GET /value?item= `Cn1c(S)nc2sc3c(c2c1=O)CCCC3` &field=melting point returns 304 to 306 °C

Data point: `CC(C)c1ccccc1NC(N)=S` ; melting point = 137 to 139 °C

###

Parameter melting point: see the listing below.

Record summary for `O=C(O)c1ccc(Cl)c(S(=O)(=O)Nc2ccc(Cl)cc2)c1` : reported melting point = 214 to 216 °C

###

parameter: melting point

Consider the reported melting point for these compounds:
• CC(=O)NCc1ccc(C(=O)N2CCCC2C(=O)O)cc1 (centres undefined) = 196 to 198 °C
• Nc1cccc(CS(=O)(=O)c2ccccc2)c1 = 132 to 134 °C

The compound listed as `Nc1noc(-c2ccccc2)n1` has a reported melting point of 164 to 166 °C

The measured melting point associated with `Nc1cc(-c2cc(F)cc(F)c2)[nH]n1` reads 110 to 112 °C
